Hello, the source for this data is patent US5691373A, in case you need it.

Target: human ETB receptor (Homo sapiens, UniProt P24530)
Construct: expressed in transfected cells; host or cells: CHO-K1 cells, pRc-CMW (so in the source) expression vector, electroporation; membranes used
Sequence (P24530 27-442): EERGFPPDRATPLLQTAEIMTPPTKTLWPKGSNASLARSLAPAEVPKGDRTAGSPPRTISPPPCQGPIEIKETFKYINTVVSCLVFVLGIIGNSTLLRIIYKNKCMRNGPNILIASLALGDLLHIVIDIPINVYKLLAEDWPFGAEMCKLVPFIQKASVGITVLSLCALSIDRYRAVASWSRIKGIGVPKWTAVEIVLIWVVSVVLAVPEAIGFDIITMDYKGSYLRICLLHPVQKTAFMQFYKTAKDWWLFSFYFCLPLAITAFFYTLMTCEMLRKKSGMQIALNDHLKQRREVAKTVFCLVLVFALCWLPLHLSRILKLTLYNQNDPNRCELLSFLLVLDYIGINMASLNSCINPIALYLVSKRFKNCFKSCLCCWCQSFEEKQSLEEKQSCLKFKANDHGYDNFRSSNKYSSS
Experiment: ERBA-B: [125I]-ET-1 binding, recombinant human ETB receptor expressed in CHO-K1 cells
Conditions: human cloned ETB receptor, read-out: ERBA-B IC50, human cloned receptor data
pIC50: −log10 of the molar value.
pIC50 values, listed per item

Molecule	Rel	pIC50
COc1ccc(C2(O)OC(=O)C(c3cc(OC)cc(OC)c3)=C2Cc2cccnc2)cc1 (stereo not shown) [Example 133]	=	5.17
CCC(CC)CC1=C(c2ccc3c(c2)OCO3)C(=O)OC1(O)c1ccc(OC)cc1 (stereo not shown)	=	4.93
COc1ccc(C2(O)OC(=O)C(c3ccc4c(c3)OCO4)=C2Cc2ccc(CC(=O)O)cc2)cc1 (stereo not shown)	<	5.60
COc1ccc(C2(O)OC(=O)C(c3ccc4c(c3)OCO4)=C2Cc2cc(C)c(OC(C)C)c(C)c2)cc1 (stereo not shown)	=	6.06
COc1ccc(C2(O)OC(=O)C(c3ccc4c(c3)OCO4)=C2Cc2ccc(C(C)C)cc2)cc1 (stereo not shown)	<	5.60
C=CCOc1cc(CC2=C(c3ccc4c(c3)OCO4)C(=O)OC2(O)c2ccc(OC)cc2)ccc1OC (stereo not shown)	=	6.06
COc1cc(OC)cc(/C(C(=O)O)=C(\Cc2ccc(NC(C)=O)cc2)C(=O)c2ccc(OC)c(C)c2)c1	=	5.68
COc1ccc(C2(O)OC(=O)C(c3cc(OC)cc(OC)c3)=C2Cc2ccc(Cl)cc2)cc1 (stereo not shown)	<	5.60
COc1ccc(C2(O)OC(=O)C(c3ccc4c(c3)OCO4)=C2Cc2cccc(CC(=O)O)c2)cc1 (stereo not shown)	<	5.60
COc1ccc(C2(O)OC(=O)C(c3ccc4c(c3)OCO4)=C2CC2CCCC(C(=O)O)C2)cc1 (stereo not shown)	=	5.52
COc1ccc(C2(O)OC(=O)C(c3ccc4c(c3)OCO4)=C2Cc2ccc(OC)c(OC)c2)cc1 (stereo not shown)	=	6.02
COc1ccc(C2(O)OC(=O)C(c3ccc4c(c3)OCO4)=C2Cc2ccccc2)c(OCC(=O)O)c1 (stereo not shown)	<	5.60
COc1ccc(C2(O)OC(=O)C(c3cc(OC)c4c(c3)OCO4)=C2Cc2ccccc2)cc1 (stereo not shown)	=	6.18
COC(=O)Cc1cccc(CC2=C(c3ccc4c(c3)OCO4)C(=O)OC2(O)c2ccc(OC)cc2)c1 (stereo not shown)	=	6.11
COC(=O)C1CCCC(CC2=C(c3ccc4c(c3)OCO4)C(=O)OC2(O)c2ccc(OC)cc2)C1 (stereo not shown)	=	5.96
CCC1=C(c2ccc3c(c2)OCO3)C(=O)OC1(O)c1ccc(OC)cc1 (stereo not shown)	=	4.82

###

Molecular target: ETA (Oryctolagus cuniculus, UniProt A5A8K3)
Sequence (A5A8K3 21-427): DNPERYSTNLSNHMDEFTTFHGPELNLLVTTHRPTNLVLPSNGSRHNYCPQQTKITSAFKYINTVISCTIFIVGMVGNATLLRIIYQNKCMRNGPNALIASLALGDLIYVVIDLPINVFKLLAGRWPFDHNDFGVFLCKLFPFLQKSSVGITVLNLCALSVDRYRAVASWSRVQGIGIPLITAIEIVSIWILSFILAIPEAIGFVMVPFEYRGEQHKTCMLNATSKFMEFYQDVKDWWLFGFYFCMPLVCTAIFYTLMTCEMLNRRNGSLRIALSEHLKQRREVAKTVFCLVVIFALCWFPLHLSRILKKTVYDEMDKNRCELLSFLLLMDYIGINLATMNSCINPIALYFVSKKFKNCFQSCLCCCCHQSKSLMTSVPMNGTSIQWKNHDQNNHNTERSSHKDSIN
Details: ERBA-A IC50, [125I]-ET-1, rabbit renal artery vascular smooth muscle cells
Reported IC50 values are given for each entry in this list.

Molecule	IC50
COc1ccc(C2(O)OC(=O)C(c3ccc4c(c3)OCO4)=C2Cc2ccc(C(C)(C)C)cc2)cc1 (stereo not shown) [Example 79]	84 nM
COc1ccc(C2(O)OC(=O)C(c3ccc4c(c3)OCO4)=C2Cc2cccnc2)cc1 (stereo not shown) [Example 160]	350 nM
C=CCOc1cc(CC2=C(c3ccc4c(c3)OCO4)C(=O)OC2(O)c2ccc(OC)cc2OC)ccc1OC (stereo not shown) [Example 255]	8.3 nM
O=C1OC(O)(c2ccc(Cl)cc2)C(Cc2ccc3c(c2)OCO3)=C1c1ccc2c(c1)OCO2 (racemic) [Example 46]	3600 nM
O=C1OC(O)(c2ccc(OCc3ccccc3)cc2)C(Cc2ccccc2)=C1c1ccc2c(c1)OCO2 (stereo not shown) [Example 208]	1200 nM
COc1ccc(C2(O)OC(=O)C(c3ccc4c(c3)OCO4)=C2Cc2ccc(SC)cc2)cc1 (stereo not shown) [Example 236]	230 nM
COc1ccc(C2(O)OC(=O)C(c3ccc4c(c3)OCO4)=C2Cc2ccc(OC3CCCCC3)c(C)c2)cc1 (stereo not shown) [Example 397]	610 nM
